B1: Retinoic acid receptor beta, residues 85 to 161; numbered along this chain, P10826 (parent)
chain: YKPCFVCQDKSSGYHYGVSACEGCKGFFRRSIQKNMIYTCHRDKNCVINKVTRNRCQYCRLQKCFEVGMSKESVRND

- Variants of: B1
- experiment_notes: abundance fitness (aPCA) (normalised: wild type 0, dead -1); higher = more abundant; growth selection in yeast, the domain comes from the species named
- test_conditions: Homo sapiens
Categorize each record by its abundance fitness using lo = under -0.3, mid = from -0.3 up to 0.003, hi = 0.003 and over

Would you please look over these solved cases?
{"variant_id": "V47Q", "cat": "hi"}
{"variant_id": "I32Q", "cat": "mid"}
{"variant_id": "I32Y", "cat": "mid"}
{"variant_id": "H41N", "cat": "mid"}
{"variant_id": "C24S", "cat": "lo"}
{"variant_id": "C56P", "cat": "lo"}
{"variant_id": "K50P", "cat": "hi"}
{"variant_id": "A20I", "cat": "hi"}
{"variant_id": "R55N", "cat": "hi"}
{"variant_id": "R55G", "cat": "hi"}

Exam item: Class (by measured abundance fitness) for S11C
Marked response: lo

Exam item: Class (by measured abundance fitness) for H41M
Marked response: hi
